Biological target: SARS-CoV-2 M^pro (Severe acute respiratory syndrome coronavirus 2)
Settings: read-out: FlipGFP M^pro assay EC50
measured_metric: EC50 (nM)
Expressed in nM, but write only the number.

Please look up its EC50: C[C@H](NC(=O)[C@@H](c1cccnc1)N(C(=O)C(Cl)Cl)c1ccc(-c2ccccc2)cc1)c1ccccc1
960

----------
Molecular target: cathepsin L (Homo sapiens)
Sequence (P07711 114-333 limits assumed): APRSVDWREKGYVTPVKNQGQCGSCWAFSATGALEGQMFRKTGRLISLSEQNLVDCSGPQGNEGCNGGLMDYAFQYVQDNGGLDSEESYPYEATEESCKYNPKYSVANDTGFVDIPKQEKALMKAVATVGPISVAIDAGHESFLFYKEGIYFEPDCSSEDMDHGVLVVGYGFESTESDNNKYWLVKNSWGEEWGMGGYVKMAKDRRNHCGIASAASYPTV
measured_metric: IC50 (µM)
Expressed in µM, but write only the number.

Please look up its IC50: C[C@H](NC(=O)[C@@H](c1cccnc1)N(C(=O)C(Br)(Br)Br)c1ccc(-c2ccccc2)cc1)c1ccccc1 [Jun9-88-6R]
7.37

----------
Target: SARS-CoV-2 M^pro (Severe acute respiratory syndrome coronavirus 2)
Format: biochemical
Conditions: read-out: SARS-CoV-2 M^pro IC50; FRET-based enzymatic assay
Parameter: IC50. Scope: all listed entries.
Expressed in nM, but write only the number.

compound: C[C@H](NC(=O)[C@@H](c1cccnc1)N(C(=O)C(Br)Br)c1ccc(-c2ccccc2)cc1)c1ccccc1 [Jun9-89-2R]
system: SARS-CoV-2 M^pro (Severe acute respiratory syndrome coronavirus 2)
IC50 (nM): 80

Please look up its IC50: C[C@H](NC(=O)[C@H](c1cccnc1)N(C(=O)C(Br)Br)c1ccc(-c2ccccc2)cc1)c1ccccc1 [Jun9-89-2S]
2440

----------
System: Calu-3 cells
measured_metric: CC50 (µM)
Expressed in µM, but write only the number.

Please look up its CC50: CC#CC(=O)N(c1ccc(-c2ccccc2)cc1)C(C(=O)N[C@@H](C)c1ccccc1)c1cccnc1 (stereo partly shown) [Jun9-62-1]
47.8

----------
CC50, Vero E6 cells, per-entry values.
Please report the result as a number followed by the unit.

Here is how some compounds turned out for CC50.
compound: C[C@H](NC(=O)[C@H](c1cccnc1)N(C(=O)C(Br)Br)c1ccc(-c2ccccc2)cc1)c1ccccc1
CC50: 4.57 µM
//
compound: C[C@H](NC(=O)[C@@H](c1cccnc1)N(C(=O)C(Br)Br)c1ccc(-c2ccccc2)cc1)c1ccccc1
CC50: 8.94 µM
//
compound: C[C@H](NC(=O)[C@H](c1cccnc1)N(C(=O)C(Br)(Br)Br)c1ccc(-c2ccccc2)cc1)c1ccccc1
CC50: 5.99 µM
//
compound: CC#CC(=O)N(c1ccc(-c2ccccc2)cc1)C(C(=O)N[C@@H](C)c1ccccc1)c1cccnc1 (stereo partly shown)
CC50: 18 µM
//
compound: C[C@H](NC(=O)[C@@H](c1cccnc1)N(C(=O)C(Br)(Br)Br)c1ccc(-c2ccccc2)cc1)c1ccccc1
CC50: 5.48 µM

Reported CC50 for Vero E6 cells, given C[C@H](NC(=O)[C@@H](c1cccnc1)N(C(=O)C(Cl)(Br)Br)c1ccc(-c2ccccc2)cc1)c1ccccc1 ?
8.41 µM

Reported CC50 for Vero E6 cells, given C[C@H](NC(=O)C(c1cccnc1)N(C(=O)C(Cl)(Cl)Br)c1ccc(-c2ccccc2)cc1)c1ccccc1 (stereo partly shown) ?
32.4 µM

----------
Tested on: SARS-CoV-2
Type: cell-based
Conditions: read-out: Antiviral EC50 against SARS-CoV-2 in Calu-3 cells
measured_metric: EC50 (nM)
Expressed in nM, but write only the number.

Please look up its EC50: C[C@H](NC(=O)[C@@H](c1cccnc1)N(C(=O)C(Cl)Cl)c1ccc(-c2ccccc2)cc1)c1ccc(Br)cc1
2000
